test system: E. coli K-12 MG1655; test: microbe, parasite or virus in culture; assay type: cell-based, Escherichia coli; conditions: Escherichia coli, MG1655; as E2; generation 80; read-out: MIC of MG1655 under the pressure of the same drug, generation 80
OUTCOME_MEASURE: MIC (µg/mL)
Quick reminder: number only, in µg/mL, skip the unit.

SMILES_STRUCTURE | ASSAY_TARGET | MIC, µg/mL
C[C@H]1c2cccc(O)c2C(=O)C2=C(O)[C@]3(O)C(=O)C(C(N)=O)=C(O)[C@@H](N(C)C)[C@@H]3[C@@H](O)[C@@H]21 | E. coli K-12 MG1655 | 32
CC[C@H]1OC(=O)[C@H](C)[C@@H](O[C@H]2C[C@@](C)(OC)[C@@H](O)[C@H](C)O2)[C@H](C)[C@@H](O[C@@H]2O[C@H](C)C[C@H](N(C)C)[C@H]2O)[C@](C)(O)C[C@@H](C)CN(C)[C@H](C)[C@@H](O)[C@]1(C)O | E. coli K-12 MG1655 | 4

What does the record list as MIC for CC1(C)S[C@@H]2[C@H](NC(=O)[C@H](N)c3ccccc3)C(=O)N2[C@H]1C(=O)O ?
16

Please give the measured MIC for this compound: O=C(N[C@H](CO)[C@H](O)c1ccc([N+](=O)[O-])cc1)C(Cl)Cl
512

---

List of MIC values.
test system: E. coli K-12 MG1655; assay: microbe, parasite or virus in culture; type: cell-based, Escherichia coli; conditions: Escherichia coli, MG1655; as E2; generation 50; read-out: MIC of MG1655 under the pressure of the same drug, generation 50
Quick note: give the figure in µg/mL, leave out the unit.

As a guide, the following entries are already answered.
MOLECULE | MIC [µg/mL]
O=C1CN(/N=C/c2ccc([N+](=O)[O-])o2)C(=O)N1 [NIT, Nitrofurantoin] | 128
CC1(C)S[C@@H]2[C@H](NC(=O)[C@H](N)c3ccccc3)C(=O)N2[C@H]1C(=O)O [AMP, Ampicillin] | 16
CC[C@H]1OC(=O)[C@H](C)[C@@H](O[C@H]2C[C@@](C)(OC)[C@@H](O)[C@H](C)O2)[C@H](C)[C@@H](O[C@@H]2O[C@H](C)C[C@H](N(C)C)[C@H]2O)[C@](C)(O)C[C@@H](C)CN(C)[C@H](C)[C@@H](O)[C@]1(C)O [AZI, Azithromycin] | 4
C[C@H]1c2cccc(O)c2C(=O)C2=C(O)[C@]3(O)C(=O)C(C(N)=O)=C(O)[C@@H](N(C)C)[C@@H]3[C@@H](O)[C@@H]21 [DOX, Doxycycline] | 32

Now consider a different molecule.
Suppose we examine the molecule O=C(N[C@H](CO)[C@H](O)c1ccc([N+](=O)[O-])cc1)C(Cl)Cl [CHL, Chloramphenicol] ; what MIC value has been reported?
128

---

system: E. coli K-12 MG1655; assay: microbe, parasite or virus in culture; assay type: cell-based, Escherichia coli; conditions: Escherichia coli, MG1655; as E2; generation 20; read-out: MIC of MG1655 under the pressure of the same drug, generation 20
OUTCOME_MEASURE: MIC (µg/mL)
Entry rule: numbers only, all in µg/mL.

SMILES_STRUCTURE | DISPLAY_UNIT | MIC
CC1(C)S[C@@H]2[C@H](NC(=O)[C@H](N)c3ccccc3)C(=O)N2[C@H]1C(=O)O | µg/mL | 8

# query: MIC | item O=C1CN(/N=C/c2ccc([N+](=O)[O-])o2)C(=O)N1 | system: E. coli K-12 MG1655
16

Entry COc1cc(Cc2cnc(N)nc2N)cc(OC)c1OC , system E. coli K-12 MG1655: what MIC was measured?
128
